Where these numbers come from: ChEMBL document CHEMBL1131707

# Test system: Staphylococcus aureus
# assay_method_text: Antibacterial activity of compound was determined against Staphylococcus aureus 1538p
# Type: functional
MIC for assorted compounds

{"compound": "CSCC[C@H](N)C(=O)OC[C@H]1O[C@@H](n2cnc3c(N)ncnc32)[C@H](O)[C@@H]1O", "system_name": "Staphylococcus aureus", "MIC": "> 64 µg/mL"}
{"compound": "CSCC[C@H](N)C(=O)NO", "system_name": "Staphylococcus aureus", "MIC": "> 64 µg/mL"}
{"compound": "CSCC[C@H](N)C(=O)N(O)C[C@H]1OC(n2cnc3c(N)ncnc32)[C@H](O)[C@@H]1O (stereo not given in full)", "system_name": "Staphylococcus aureus", "MIC": "> 64 µg/mL"}
{"compound": "CSCC[C@H](N)C(=O)NC[C@H]1OC(n2cnc3c(N)ncnc32)[C@H](O)[C@@H]1O (stereo not given in full)", "system_name": "Staphylococcus aureus", "MIC": "> 64 µg/mL"}
{"compound": "CSCC[C@H](N)C(=O)NOC[C@H]1OC(n2cnc3c(N)ncnc32)[C@H](O)[C@@H]1O (stereo not given in full)", "system_name": "Staphylococcus aureus", "MIC": "> 64 µg/mL"}
